These data points were gathered from patent US6608082B1.

Target: MCR-1 (Homo sapiens)
Construct: expressed in transfected cells; host or cells: HEK 293
Assay: Melanocortin receptor binding assay, competition with 125I-HP 467, HEK 293 cells expressing hMCR-1
Conditions: TRG 2408 and TRG 2409 libraries; inhibition of 125I-HP 467 binding; read-out: MC-1 IC50
recorded.endpoint: pIC50
Numbers only, as −log10 of the molar value.

Example compounds with recorded pIC50:
compound: NCC(N)CCCCN1Cc2ccccc2C(CNC2CCCCC2)C1c1ccc(Cl)cc1Cl (stereo not shown)
pIC50: 5.76

compound: CCNc1ccc(C2C(CNC3CCCCC3)c3ccccc3CN2CCCC(CN)NCCc2ccccc2)cc1 (stereo not shown)
pIC50: 6.92

compound: CNCCNC(CN)CCCCN1Cc2ccccc2C(CNC2CCCCC2)C1c1ccc(Cl)cc1Cl (stereo not shown) [TRG 2408-44]
pIC50: 5.90

Next item in the queue.
Request: Determine its reported pIC50: NCCNC(CN)CCCN1Cc2ccccc2C(CNC2CCCCC2)C1c1ccc(Cl)cc1Cl (stereo not shown)
Result: 5.97

* * *

Please provide measured IC50 for the entries that follow.
Target: MCR-4 (Homo sapiens)
Construct: expressed in transfected cells; host or cells: HEK 293
Sequence (P32245 whole entry): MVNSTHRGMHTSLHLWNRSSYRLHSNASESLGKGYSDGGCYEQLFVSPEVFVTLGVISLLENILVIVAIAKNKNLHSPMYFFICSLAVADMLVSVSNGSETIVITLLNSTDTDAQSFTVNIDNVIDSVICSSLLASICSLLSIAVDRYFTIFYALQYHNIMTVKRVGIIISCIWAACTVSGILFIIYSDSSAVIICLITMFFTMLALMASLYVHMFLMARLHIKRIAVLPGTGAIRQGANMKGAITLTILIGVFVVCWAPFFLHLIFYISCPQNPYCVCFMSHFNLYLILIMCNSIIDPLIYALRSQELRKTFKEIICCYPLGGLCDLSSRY
Assay: Melanocortin receptor binding assay, competition with 125I-HP 467, HEK 293 cells expressing hMCR-4
Settings: inhibition of binding of 125I-HP 467, HEK 293 cells expressing MCR-4; TRG 2414 library; read-out: MC-4 IC50
Numbers only, in µM.

compound: NCC(N)CCCCN1Cc2ccccc2C(CNCCc2cccc(Cl)c2)C1c1ccc(Oc2ccccc2)cc1 (stereo not shown)
target: MCR-4 (Homo sapiens)
IC50 (µM): 15.9
--
compound: NCC(N)CCCCN1Cc2ccccc2C(CNCc2ccccc2C(F)(F)F)C1c1ccc(Cl)cc1Cl (stereo not shown)
target: MCR-4 (Homo sapiens)
IC50 (µM): 7.59
--
compound: COc1ccccc1CCNCC1c2ccccc2CN(CCCCC(CN)NCC(C)c2ccc(CC(C)C)cc2)C1c1ccc(Cl)cc1Cl (stereo not shown)
target: MCR-4 (Homo sapiens)
IC50 (µM): 34.5
--
compound: COc1ccccc1CCNCC1c2ccccc2CN(CCCCC(N)CN)C1c1ccc(Cl)cc1Cl (mixture of isomers)
target: MCR-4 (Homo sapiens)
IC50 (µM): 0.7
--
compound: COc1ccc(CNCC2c3ccccc3CN(CCCCC(CN)NCCc3ccccc3)C2c2ccc(Oc3ccccc3)cc2)cc1 (stereo not shown)
target: MCR-4 (Homo sapiens)
IC50 (µM): 11.3
--
compound: COc1ccc(CCNCC2c3ccccc3CN(CCCC[C@H](N)CN)C2c2ccc(Cl)cc2Cl)cc1 (stereo partly shown)
target: MCR-4 (Homo sapiens)
IC50 (µM): 0.52

Request: Determine its reported IC50: NCC(N)CCCCN1Cc2ccccc2C(CNC2CCCCC2)C1c1ccc(Oc2ccccc2)cc1 (stereo not shown)
Result: 4.11

* * *

Target: MCR-1 (Homo sapiens, UniProt Q01726)
Construct: expressed in transfected cells; host or cells: HEK 293
Sequence (Q01726 whole entry): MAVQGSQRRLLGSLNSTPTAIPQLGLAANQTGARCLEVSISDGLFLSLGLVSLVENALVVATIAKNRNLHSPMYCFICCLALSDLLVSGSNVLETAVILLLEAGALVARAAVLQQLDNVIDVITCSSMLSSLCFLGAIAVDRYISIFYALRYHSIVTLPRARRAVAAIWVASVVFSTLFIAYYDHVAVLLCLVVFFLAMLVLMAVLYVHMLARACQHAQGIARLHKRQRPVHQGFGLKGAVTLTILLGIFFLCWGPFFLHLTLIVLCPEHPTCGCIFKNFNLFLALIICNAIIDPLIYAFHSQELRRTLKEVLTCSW
Experiment: Melanocortin receptor binding assay, competition with 125I-HP 467, HEK 293 cells expressing hMCR-1
Conditions: competition with 125I-HP 467, HEK 293 cells expressing MCR-1; read-out: MC-1 IC50
recorded.endpoint: IC50 (nM)
Answers are plain numbers, in nM.

Example molecules with recorded IC50:
molecule: CCCCNc1ccc(C2C(CN)c3ccccc3CN2CCCCC(CN)NCCc2ccc(Br)cc2)cc1 (centres unmarked)
readout.units: nM
experimental.value: 210
//
molecule: NCC(CCCCN1Cc2ccccc2C(CNCCc2ccccc2)C1c1ccc(-c2ccccc2)cc1)NCCO (centres unmarked)
readout.units: nM
experimental.value: 630
//
molecule: NCC(CCCCN1Cc2ccccc2C(CNC2CCCCC2)C1c1ccc(-c2ccccc2)cc1)NCCO (centres unmarked)
readout.units: nM
experimental.value: 900
//
molecule: CNC(C)CNC(CN)CCCCN1Cc2ccccc2C(CNCCc2ccccc2)C1c1ccc(-c2ccccc2)cc1 (centres unmarked)
readout.units: nM
experimental.value: 470
//
molecule: CCCCNC(CN)CCCN1Cc2ccccc2C(CN)C1c1ccc(-c2ccccc2)cc1 (centres unmarked)
readout.units: nM
experimental.value: 1260
//
molecule: CCCCNc1ccc(C2C(CNC3CCCCC3)c3ccccc3CN2CCCCC(CN)NCCc2ccc(OC)cc2)cc1 (centres unmarked)
readout.units: nM
experimental.value: 300

Required: IC50, one value per molecule below.
1. CCCCNc1ccc(C2C(CN)c3ccccc3CN2CCCC(CN)NCc2ccccc2)cc1 (centres unmarked)
2. CCCCNc1ccc(C2C(CNC3CCCCC3)c3ccccc3CN2CCCCC(CN)NCCc2ccc3ccccc3c2)cc1 (centres unmarked)

Result:
1. 120
2. 600
